Test system: HOP-62
Assay: NCI tumour cell line growth inhibition, 48 h
Calls of active or inactive are those of the source. Rule as the data show it: active = GI50 up to about 1.1 µM and inactive = higher.
measurement.kind: GI50

| compound | assay.result |
| --- | --- |
| CC(OC(C)(C)C)[C@H](NC(=O)OCC(Cl)(Cl)Cl)C(=O)O (some centres undefined) | > 100 µM (inactive) |
| CC1(C)CCC2(C(=O)OC3OC(CO)C(O)C(O)C3O)CCC3(C)C(=CCC4C5(C)CCC(OC6OC(CO)C(O)C(O)C6O)C(C)(C)C5CCC43C)C2C1 (centres undefined) | > 25 µM (inactive) |
| CCCCN(CC)C(=O)C(=O)Cc1nc2ccc(C(=O)c3ccccc3)cc2nc1O | > 100 µM (inactive) |

Now look at this one.
Sample CC(=O)O[C@@]12CO[C@@H]1CC(O)[C@@]1(C)C(=O)[C@H](O)C3=C(C)C(O)C[C@@](O)(C(OC(=O)c4ccccc4)C12)C3(C)C (some centres undefined) ; GI50 observed: 6.05 µM (inactive)
